Please respond with reported solubility at 24 h for every item in the list.
experiment: Determination of solubility in PBS buffer pH 6.5; conditions: PBS buffer, pH 6.5, aqueous buffer, kinetic from dmso stock, Solubility, PBS buffer pH 6.5, 1% DMSO, room temperature
Respond with the bare value in µg/mL.

Task: # query: solubility at 24 h of entry O=C(O)[C@H]1[C@H](Cn2nnc3ccccc3c2=O)CC[C@@H]1C(=O)c1ccc(OCCC2CCOCC2)cc1 (stereo in doubt)
Result: 51.4

Task: What does the data say about its solubility at 24 h? Entry: O=C(O)[C@@H]1[C@@H](Cn2nnc3ccccc3c2=O)CC[C@H]1C(=O)c1ccc(OCCC2CCOCC2)cc1 (single isomer, unassigned)
Result: 338

Task: Item under review: Cc1ccc2nnn(C[C@@H]3CC[C@H](C(=O)c4ccc(OCCC5CCOCC5)cc4)[C@H]3C(=O)O)c(=O)c2c1 (racemic) . Reported solubility at 24 h?
Result: 17

Task: Would you kindly share the measured solubility at 24 h for O=C(O)[C@@H]1[C@@H](Cn2nnc3ccc(C(F)(F)F)cc3c2=O)CC[C@H]1C(=O)c1ccc(OCCC2CCOCC2)cc1 (single isomer, unassigned) ?
Result: 210

Task: Would you kindly share the measured solubility at 24 h for O=C(O)[C@H]1[C@H](Cn2nnc3ccccc3c2=O)CC[C@@H]1C(=O)c1ccc(OCC2CCOCC2)cc1 (stereo in doubt) ?
Result: 52.2

Task: Any idea what solubility at 24 h was measured for Cc1ccc2nnn(C[C@H]3CC[C@@H](C(=O)c4ccc(OCC5CCOCC5)cc4)[C@@H]3C(=O)O)c(=O)c2c1 (single isomer, unassigned) ?
Result: 250
